# target_or_system: BRD4-BD2 (Homo sapiens (Human))
# assay_text: BRD4 AlphaScreen assay (BRD4-BD2)
# condition_parameters: H4Ac4 peptide, 20 nM BRD4-BD2, read-out: BRD4 BD-2 enzyme IC50
readout_kind: IC50

compound	IC50
Cc1nc2cc(-c3cn(C)c(=O)c4[nH]ccc34)c(Oc3ccc(F)cc3F)cc2n1C	≤ 100 nM

Enquiry: Param readout = IC50; param system = BRD4-BD2 (Homo sapiens (Human)); param query = Cn1cc(-c2cc3ncn(C)c3cc2OCC2CCC2)c2cc[nH]c2c1=O ; response: value
Return: ≤ 100 nM

Enquiry: Do the same for Cn1cc(-c2cc3[nH]c(=O)n(C)c3cc2Oc2ccc(F)cc2F)c2cc[nH]c2c1=O please
Return: ≤ 100 nM

Enquiry: Do the same for Cn1cc(-c2cc3[nH]c(CCC(=O)O)nc3cc2OCC2CCC2)c2cc[nH]c2c1=O please
Return: ≤ 100 nM

Enquiry: Do the same for Cn1cc(-c2cc3c(cc2OCC2CCC2)ncn3Cc2ccccc2)c2cc[nH]c2c1=O please
Return: ≤ 100 nM

Enquiry: Do the same for CC(C)n1cnc2cc(OCC3CCC3)c(-c3cn(C)c(=O)c4[nH]ccc34)cc21 please
Return: ≤ 100 nM

Enquiry: Do the same for Cn1cc(-c2cc3c(cc2Oc2ccc(F)cc2F)n(C)c(=O)n3C)c2cc[nH]c2c1=O please
Return: ≤ 100 nM

====

# target_or_system: BRD4-BD1 (Homo sapiens (Human), UniProt O60885)
# assay_text: BRD4 AlphaScreen assay (BRD4-BD1)
# condition_parameters: H4Ac4 peptide, 3.8 nM BRD4-BD1, read-out: BRD4 BD-1 enzyme IC50
pIC50: −log10 of the molar value. Counter-ions that a name gives are not always drawn.
readout_kind: pIC50

molecule	result
Cn1cc(-c2cc3c(cc2Oc2ccc(F)cc2F)n(C)c(=O)n3C)c2cc[nH]c2c1=O [Example 7]	6.00 to 7.00
Cn1cc(-c2cc3c(cc2OCC2CCC2)ncn3C)c2cc[nH]c2c1=O [Example 14]	≥ 7.00
Cn1cc(-c2cc3[nH]cnc3cc2Oc2ccc(F)cc2F)c2cn[nH]c2c1=O [Example 9, trifluoroacetate]	≥ 7.00
Cn1cc(-c2cc3c(cc2OCC2CCC2)ncn3Cc2ccccc2)c2cc[nH]c2c1=O [Example 16]	6.00 to 7.00

Enquiry: Look up pIC50 for this molecule: Cn1cc(-c2cc3[nH]c(C4CCCC4)nc3cc2OCC2CCC2)c2cc[nH]c2c1=O [Example 21, bis(trifluoroacetate)]
Return: ≥ 7.00

====

Here, each record is paired with measured pIC50 data.
# target_or_system: BRD4-BD2 (Homo sapiens (Human), UniProt O60885)
# assay_text: BRD4 AlphaScreen assay (BRD4-BD2)
# condition_parameters: H4Ac4 peptide, 20 nM BRD4-BD2, read-out: BRD4 BD-2 enzyme IC50
pIC50: −log10 of the molar value. Structures can show the parent of a compound that is named as a salt.

compound	readout_kind	result
Cn1cc(-c2cc3[nH]cnc3cc2Oc2ccc(F)cc2F)c2cn[nH]c2c1=O [Example 9, trifluoroacetate]	pIC50	≥ 7.00

Enquiry: Look up pIC50 for this compound: CC(C)n1cnc2cc(-c3cn(C)c(=O)c4[nH]ccc34)c(OCC3CCC3)cc21
Return: ≥ 7.00

Enquiry: Do the same for Cn1cc(-c2cc3ncn(Cc4ccccc4)c3cc2OCC2CCC2)c2cc[nH]c2c1=O please
Return: ≥ 7.00
